test: chemical genetic growth profiling, strain panel (AID 1159580);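 also: tested at 20 µM; growth read once vehicle control cultures reached saturation at 30 °C; 1 = growth at the plate median or of vehicle wells; lower values mean less growth of the strain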; conditions: S. cerevisiae deletion strains, growth OD, locus YLR320W, strain mms22, hits give low values
The campaign covered roughly 5,500 compounds. About 2,000 (36%) were called active. Inconclusive results (about 18%) are left out. This is one part of the list.
VALUE TYPE: normalized growth

>>> value_measured("COc1ccc2c(c1)OCC(Cc1ccc(OC)c(O)c1)C2=O (centres undefined)")
"0.835 (active)"

-- ask Requested read-out: normalized growth. Entry: O=C(O)COc1ccc(Cl)cc1Cl
-- reply 0.991 (inactive)

-- ask Next record, please: CC(=O)O[C@H]1C[C@@H](OC(C)=O)C(C)(C)C2C[C@@H](O)[C@]3(C)C(CC[C@@]4(C)[C@H](c5ccoc5)OC(=O)[C@H]5O[C@]543)[C@]21C (some centres undefined)
-- reply 0.978 (inactive)

-- ask And COc1cc2c(cc1OC)C1(O)C(=O)c3ccc(O)c(C(=O)O)c3OC1CO2 (centres undefined) ?
-- reply 1.01 (inactive)

-- ask Try this compound too: CC(=O)O[C@@H]1CC2C(C)(C)[C@H](O)CC[C@]2(C)C2CC[C@@]3(C)[C@H](c4ccoc4)OC(=O)C4OC43[C@@]21C (some centres undefined)
-- reply 1.03 (inactive)

-- ask Same for Cc1nnc(NS(=O)(=O)c2ccc(N)cc2)s1
-- reply 0.99 (inactive)

-- ask Same question, COc1ccc2c(c1)OCC(Cc1ccc(OC)c(OC(C)=O)c1)C2=O (centres undefined) this time
-- reply 0.933 (inactive)

-- ask What would you report for CC(=O)O[C@H]1C[C@@H](OC(C)=O)C(C)(C)C2C[C@@H](OC(C)=O)[C@]3(C)C(CC[C@@]4(C)[C@H](c5ccoc5)OC(=O)[C@H]5O[C@]543)[C@]21C (some centres undefined) ?
-- reply 1.02 (inactive)

-- ask Repeat with CCCCC(=O)O[C@]1(C(=O)CO)CCC2C3CCC4=CC(=O)CC[C@]4(C)C3[C@@H](O)C[C@@]21C (some centres undefined)
-- reply 0.977 (inactive)

====

assay: chemical genetic growth profiling, strain panel (AID 1159580);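 also: tested at 20 µM; growth read once vehicle control cultures reached saturation at 30 °C; 1 = growth at the plate median or of vehicle wells; lower values mean less growth of the strain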; conditions: S. cerevisiae deletion strains, growth OD, locus YKR091W, strain srl3, hits give low values
Among all 5,500 compounds or so, about 2,000 (36%) were called active. About 18% were inconclusive and are not listed. The list shows a part of the results.
VALUE TYPE: normalized growth
Answer using only a numeral; do not append any unit.

Examples with answers:
>>> value_measured("NC(=O)CS(=O)C(c1ccccc1)c1ccccc1 (stereo not given)")
1.01
>>> value_measured("CC(=O)O[C@H]1C[C@@H](OC(C)=O)C(C)(C)C2C[C@@H](OC(C)=O)[C@]3(C)C(CC[C@@]4(C)[C@H](c5ccoc5)OC(=O)[C@H]5O[C@]543)[C@]21C (stereo not given in full)")
0.989
>>> value_measured("Cc1ccc(C(=O)c2ccc(CC(=O)O)n2C)cc1")
1
>>> value_measured("CC1(C)C(=O)[C@@H]2O[C@@H]2[C@@]2(C)C1C[C@@H](O)[C@]1(C)C2CC[C@@]2(C)[C@H](c3ccoc3)OC(=O)C3OC321 (stereo not given in full)")
0.992
>>> value_measured("CC(C)=CC1C(C(=O)OCc2cccc(Oc3ccccc3)c2)C1(C)C (stereo not given)")
1.01
>>> value_measured("CCC(=O)OC1[C@@H]2CC3=C4CC(=O)O[C@@H](c5ccoc5)[C@]4(C)CCC3[C@@](C)(C2=O)[C@@H](CC(=O)OC)C1(C)C (stereo not given in full)")
0.984
>>> value_measured("CC(=O)O[C@H]1C[C@@H](OC(C)=O)C(C)(C)C2C[C@@H](O)[C@]3(C)C(CC[C@@]4(C)[C@H](c5ccoc5)OC(=O)[C@H]5O[C@]543)[C@]21C (stereo not given in full)")
1
>>> value_measured("Cc1cc(CC(=O)O)n(C)c1C(=O)c1ccc(Cl)cc1")
1.02
>>> value_measured("CC(=O)O[C@@H]1CC2C(C)(C)[C@H](O)C=C[C@]2(C)C2CC[C@@]3(C)[C@H](c4ccoc4)OC(=O)C4OC43[C@@]21C (stereo not given in full)")
1.02
>>> value_measured("O=C(O)CCC1NCC2CC1CN1CCCCC21 (stereo not given)")
0.97

-- ask Report normalized growth for COc1ccc2c(c1)OCC(Cc1ccc(OC)c(O)c1)C2=O (stereo not given) please.
-- reply 0.962

-- ask Consider next the compound Cc1cccc(C)c1NC(=O)C1CCCCN1C (stereo not given) in the same way.
-- reply 0.994

-- ask Entry to check: CC(=O)Oc1c2c(c(CC=C(C)C)c3c1C(=O)C1=C[C@@H]4CC5C(C)(C)OC(C/C=C(\C)C(=O)O)(C4=O)[C@@]15O3)OC(C)(CCC=C(C)C)C=C2 (stereo not given in full)
-- reply 0.978

-- ask What would you report for c1ccc2c(CC3=NCCN3)cccc2c1 ?
-- reply 0.98

-- ask How about this compound: CC(=O)O[C@H]1CC[C@@]2(C)C(C[C@@H](OC(C)=O)[C@]3(C)C2CC[C@@]2(C)[C@H](c4ccoc4)OC(=O)[C@H]4O[C@]423)C1(C)C (stereo not given in full)
-- reply 0.991

FYI, the data here is from PubChem BioAssay AID1159580.
